# Assay: Metabolic stability in human liver microsomes assessed as parent compound remaining at 10 uM measured after 10 mins in presence of NADPH and GSH by UPLC-MS/MS analysis
# Format: ADME, Microsome
# Condition: read-out: Stability
molecules and their reported remaining at 10 min, 10 µM

- Molecule: "Cc1cc(-n2cc(CN3CC(O)C(c4ccc5c(c4C)COC5=O)C3)cn2)ncc1C#N (stereo unspecified)"
  remaining at 10 min, 10 µM (%): 100
- Molecule: "Cc1c([C@@H](O)CNCc2ccc(-c3ccc(C#N)c(F)c3)nc2)ccc2c1COC2=O"
  remaining at 10 min, 10 µM (%): 75
- Molecule: "N#Cc1ccc(-c2ncc3c(n2)CCN(C[C@H](O)c2ccc4c(c2)COC4=O)C3)cc1F"
  remaining at 10 min, 10 µM (%): 73
- Molecule: "Cc1cc(-n2cc(CN3CCCC(c4ccc5c(c4C)COC5=O)C3)cn2)ncc1C#N (stereo unspecified)"
  remaining at 10 min, 10 µM (%): 59
- Molecule: "Cc1cc(-n2ccc(CNC[C@H](O)c3ccc4c(c3C)COC4=O)n2)ncc1C#N"
  remaining at 10 min, 10 µM (%): 12
- Molecule: "Cc1cc(-n2ncc(CNC[C@H](O)c3ccc4c(c3C)COC4=O)n2)ncc1C#N"
  remaining at 10 min, 10 µM (%): 92
- Molecule: "Cc1cc(-n2cc(CN3CCO[C@H](c4ccc5c(c4C)COC5=O)C3)cn2)ncc1C#N"
  remaining at 10 min, 10 µM (%): 49
- Molecule: "Cc1cc(-n2cc(CN3CCN[C@H](c4ccc5c(c4C)COC5=O)C3)cn2)ncc1C#N"
  remaining at 10 min, 10 µM (%): 96
- Molecule: "Cc1cc(-n2ncc(CN3C[C@@H](c4ccc5c(c4C)COC5=O)NC(C)(C)C3)n2)ncc1C#N"
  remaining at 10 min, 10 µM (%): 62
- Molecule: "Cc1cc(-n2cc(CNC[C@H](O)c3ccc4c(c3C)COC4=O)c(C(F)F)n2)ncc1C#N"
  remaining at 10 min, 10 µM (%): 18
- Molecule: "Cc1cc(-n2cc(CNC[C@H](O)c3ccc4c(c3C)COC4=O)cn2)ncc1C#N"
  remaining at 10 min, 10 µM (%): 86
